System: HL-1
Experiment: relative cell viability (CellTiter-Glo) vs DMSO control (% of DMSO control); higher = more viable cells
Settings: oxygen condition: hypoxia 48 h (1% O2) + reoxygenation 24 h; 200 nM
Counter-ions that a name gives are not always drawn.
READOUT: relative cell viability
Just the number, please.

| COMPOUND | REPORTED_VALUE |
| --- | --- |
| CCC(=O)O[C@@H](O[P@](=O)(CCCCc1ccccc1)CC(=O)N1C[C@H](C2CCCCC2)C[C@H]1C(=O)O)C(C)C [Fosinopril sodium] | 99.9 |
| CCCCc1ncc(/C=C(\Cc2cccs2)C(=O)O)n1Cc1ccc(C(=O)O)cc1 [Eprosartan Mesylate] | 101 |

Challenge: Please give the measured relative cell viability for this compound: C[C@@H](O)[C@H]1C(=O)N2C(C(=O)OCOC(=O)C(C)(C)C)=C(SC3CN(C4=NCCS4)C3)[C@H](C)[C@H]12
Response given: 102

---

Test system: HL-1
Assay: relative cell viability (CellTiter-Glo) vs DMSO control (% of DMSO control); higher = more viable cells
Conditions: oxygen condition: normoxia 72 h; 200 nM
Where a name gives a salt, the structure may show the parent alone.
Reported relative cell viability by item:
Just the number, please.

Observe how each entry below is paired with its result.
| COMPOUND | READOUT | REPORTED_VALUE |
| --- | --- | --- |
| NC(=O)c1ncn([C@@H]2O[C@H](CO)[C@@H](O)[C@H]2O)c1N [Acadesine] | relative cell viability | 103 |
| CNC[C@H](O)c1ccc(O)c(O)c1 [Epinephrine bitartrate] | relative cell viability | 102 |

Challenge: Request - read-out relative cell viability | tested on HL-1 | compound CN1CCC(OC(c2ccccc2)c2ccccc2)CC1 [Diphenylpyraline HCl]
Response given: 103

---

Tested on: HL-1
Test: relative cell viability (CellTiter-Glo) vs DMSO control (% of DMSO control); higher = more viable cells
Settings: oxygen condition: hypoxia 48 h (1% O2) + reoxygenation 24 h; 5000 nM
READOUT: relative cell viability
Just the number, please.

Observe how each entry below is paired with its result.
| COMPOUND | relative cell viability |
| --- | --- |
| Oc1cc(O)c(Cl)cn1 | 104 |
| CC(C)OC(=O)C(C)(C)Oc1ccc(C(=O)c2ccc(Cl)cc2)cc1 [Fenofibrate] | 110 |
| CNC(=O)c1ccc(N2C(=S)N(c3ccc(C#N)c(C(F)(F)F)c3)C(=O)C2(C)C)cc1F | 106 |
| CC1CC(OC(=O)C(O)c2ccccc2)CC(C)(C)C1 (stereo not drawn) [Cyclandelate] | 118 |
| CC[C@H](C)C(=O)O[C@H]1C[C@H](O)C=C2C=C[C@H](C)[C@H](CC[C@@H](O)C[C@@H](O)CC(=O)O)[C@H]21 [Pravastatin sodium] | 19.8 |
| COc1cccc2c1C(=O)c1c(O)c3c(c(O)c1C2=O)C[C@@](O)(C(=O)CO)C[C@@H]3O[C@H]1C[C@H](N)[C@H](O)[C@H](C)O1 | 16.7 |
| CC(C)NCC(O)COc1ccc(CCOCC2CC2)cc1 (stereo not drawn) [Betaxolol] | 101 |

// next entry
Challenge: Please give the measured relative cell viability for this compound: COc1ccc2[nH]c([S@@+]([O-])Cc3ncc(C)c(OC)c3C)nc2c1 [Esomeprazole magnesium]
Response given: 118

---

Test system: HL-1
Test: relative cell viability (CellTiter-Glo) vs DMSO control (% of DMSO control); higher = more viable cells
Settings: oxygen condition: normoxia 72 h; 40 nM
Counter-ions that a name gives are not always drawn.
READOUT: relative cell viability
Just the number, please.

Observe how each entry below is paired with its result.
| COMPOUND | relative cell viability |
| --- | --- |
| NS(=O)(=O)c1cc2c(cc1C(F)(F)F)NC(Cc1ccccc1)NS2(=O)=O (centres undefined) [Bendroflumethiazide] | 104 |
| COc1ccccc1OCC(O)COC(N)=O (centres undefined) [Methocarbamol] | 101 |

Challenge: Please give the measured relative cell viability for this compound: Cc1onc(-c2ccccc2)c1-c1ccc(S(N)(=O)=O)cc1 [Bextra]
Response given: 103

Challenge: Please give the measured relative cell viability for this compound: CCC(=O)NCC[C@@H]1CCc2ccc3c(c21)CCO3 [Ramelteon]
Response given: 105

Challenge: Please give the measured relative cell viability for this compound: CC(CN(C)C)CN1c2ccccc2CCc2ccccc21 (centres undefined) [Trimipramine Maleate]
Response given: 99.2

Challenge: Please give the measured relative cell viability for this compound: CCCc1nn(C)c2c(=O)[nH]c(-c3cc(S(=O)(=O)N4CCN(C)CC4)ccc3OCC)nc12 [Sildenafil citrate]
Response given: 107

Challenge: Please give the measured relative cell viability for this compound: COC(=O)[C@H](Cc1ccccc1)NC(=O)[C@@H](N)CC(=O)O [Aspartame]
Response given: 96.5

Challenge: Please give the measured relative cell viability for this compound: CCC[C@@H]1C[C@@H](C(=O)N[C@@H]([C@H]2O[C@H](SC)[C@H](O)[C@@H](O)[C@H]2O)[C@@H](C)O)N(C)C1 [Lincomycin hydrochloride]
Response given: 99

Challenge: Please give the measured relative cell viability for this compound: Cc1nc2n(c(=O)c1CCN1CCC(c3noc4cc(F)ccc34)CC1)CCCC2O (centres undefined) [Paliperidone]
Response given: 104

---

System: HL-1
Assay: relative cell viability (CellTiter-Glo) vs DMSO control (% of DMSO control); higher = more viable cells
Settings: oxygen condition: hypoxia 48 h (1% O2) + reoxygenation 24 h; 5000 nM
Counter-ions that a name gives are not always drawn.
READOUT: relative cell viability
Just the number, please.

Observe how each entry below is paired with its result.
| COMPOUND | REPORTED_VALUE |
| --- | --- |
| CN1CC(=O)NC1=N [Creatinine] | 114 |
| NS(=O)(=O)c1cc2c(cc1Cl)NC(C(Cl)Cl)NS2(=O)=O (stereo unspecified) [Trichlormethiazide] | 119 |
| O=C(NCCO[N+](=O)[O-])c1cccnc1 [Nicorandil] | 102 |
| C[C@H](CCC(=O)O)[C@H]1CC[C@H]2[C@@H]3[C@@H](O)C[C@@H]4C[C@H](O)CC[C@]4(C)[C@H]3CC[C@]12C [Ursodiol] | 106 |

Challenge: Please give the measured relative cell viability for this compound: COc1ccc(CN2CCN(C(c3ccc(F)cc3)c3ccc(F)cc3)CC2)c(OC)c1OC [Lomerizine HCl]
Response given: 106

Challenge: Please give the measured relative cell viability for this compound: Clc1ccc(C(Cn2ccnc2)OCc2ccc(Sc3ccccc3)cc2)c(Cl)c1 (stereo unspecified) [Fenticonazole nitrate]
Response given: 107

Challenge: Please give the measured relative cell viability for this compound: N=C(N)Nc1ccc(C(=O)Oc2ccc3cc(C(=N)N)ccc3c2)cc1 [Nafamostat mesylate]
Response given: 105

Challenge: Please give the measured relative cell viability for this compound: O=c1[nH]cc(F)c(=O)[nH]1 [Adrucil]
Response given: 18.6

Challenge: Please give the measured relative cell viability for this compound: OCCN1C[C@H](O)[C@@H](O)[C@H](O)[C@H]1CO [Miglitol]
Response given: 108

Challenge: Please give the measured relative cell viability for this compound: CCOc1nc2cccc(C(=O)OC(C)OC(=O)OC3CCCCC3)c2n1Cc1ccc(-c2ccccc2-c2nn[nH]n2)cc1 (stereo unspecified) [Candesartan cilexetil]
Response given: 4.71

Challenge: Please give the measured relative cell viability for this compound: Clc1ccc2c(c1)C(N1CCNCC1)=Nc1ccccc1O2 [Amoxapine]
Response given: 109

Challenge: Please give the measured relative cell viability for this compound: CCCc1cc(=O)[nH]c(=S)[nH]1 [Propylthiouracil]
Response given: 120

Challenge: Please give the measured relative cell viability for this compound: O=C(O)Cc1ccccc1Nc1c(Cl)cccc1Cl [Diclofenac Diethylamine]
Response given: 113

Challenge: Please give the measured relative cell viability for this compound: NCCS [Cysteamine HCl]
Response given: 106

Challenge: Please give the measured relative cell viability for this compound: CN(Cc1cc(Br)cc(Br)c1N)C1CCCCC1 [Bromhexine HCl]
Response given: 102

Challenge: Please give the measured relative cell viability for this compound: CC(=O)OCC(=O)[C@H]1CC[C@H]2[C@@H]3CCC4=CC(=O)CC[C@]4(C)[C@H]3CC[C@]12C [Deoxycorticosterone acetate]
Response given: 108

---

Tested on: HL-1
Experiment: relative cell viability (CellTiter-Glo) vs DMSO control (% of DMSO control); higher = more viable cells
Settings: oxygen condition: normoxia 72 h; 200 nM
Where a name gives a salt, the structure may show the parent alone.
Reported relative cell viability by item:

Observe how each entry below is paired with its result.
| COMPOUND | READOUT | REPORTED_VALUE |
| --- | --- | --- |
| CN(C)CCOc1ccc(/C(=C(/CCCl)c2ccccc2)c2ccccc2)cc1 [Toremifene Citrate] | relative cell viability | 99.5 |
| COC(=O)C1=C(C)NC(C)=C(C(=O)OC(C)C)C1c1cccc2nonc12 (stereo not drawn) [Isradipine] | relative cell viability | 97.7 |
| CC1=CC(=O)c2ccccc2C1=O [Menadione] | relative cell viability | 104 |
| CC(C)n1c(/C=C/C(O)CC(O)CC(=O)O)c(-c2ccc(F)cc2)c2ccccc21 (stereo not drawn) [Fluvastatin sodium] | relative cell viability | 83.5 |
| CCNC(=O)CCC/C=C\C[C@@H]1[C@@H](/C=C/[C@@H](O)CCc2ccccc2)[C@H](O)C[C@@H]1O [Bimatoprost] | relative cell viability | 101 |

// next entry
Challenge: Please give the measured relative cell viability for this compound: C[C@H](N[C@@H](CCc1ccccc1)C(=O)O)C(=O)N1CCC[C@H]1C(=O)O [Enalaprilat dihydrate]
Response given: 99

Taken from the supplement of paper PMC8371130.
